Target: T1, human CD19 (human, UniProt P15391 20-556)
T1 construct: also called B-cell surface antigen B4; B-cell antigen CD19
T1 sequence: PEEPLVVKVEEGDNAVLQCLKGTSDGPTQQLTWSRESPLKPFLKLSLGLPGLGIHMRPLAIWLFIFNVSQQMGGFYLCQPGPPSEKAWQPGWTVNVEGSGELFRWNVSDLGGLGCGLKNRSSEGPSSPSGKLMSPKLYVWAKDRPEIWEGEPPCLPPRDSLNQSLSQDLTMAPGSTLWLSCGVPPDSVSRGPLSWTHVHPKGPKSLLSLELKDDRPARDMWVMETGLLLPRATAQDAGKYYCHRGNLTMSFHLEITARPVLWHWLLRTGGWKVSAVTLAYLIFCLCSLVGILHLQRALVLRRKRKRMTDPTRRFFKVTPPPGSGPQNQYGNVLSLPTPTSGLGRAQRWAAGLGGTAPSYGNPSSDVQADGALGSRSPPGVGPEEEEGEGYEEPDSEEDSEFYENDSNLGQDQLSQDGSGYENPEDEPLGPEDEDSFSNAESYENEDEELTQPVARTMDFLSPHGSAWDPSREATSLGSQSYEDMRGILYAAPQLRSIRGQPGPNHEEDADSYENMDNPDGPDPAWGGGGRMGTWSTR
Assay: binding affinity relative to the parent H1L1 mAb (Example 5); assay and format not named on the sheet
property-name: Fold change binding

[[record]]
binder = "H1.199 / L1.141 (antibody, V domains shown, vs H1L1 (Kabat): VH T57P/K58E/S100cT; VL A55N/F96N; also called 4G7 H1.199_L1.141) VH: EVQLVESGGGLVKPGGSLKLSCAASGYTFTSYVMHWVRQAPGKGLEWIGYINPYNDGPEYNEKFQGRVTISSDKSISTAYMELSSLRSEDTAMYYCARGTYYYGTRVFDYWGQGTLVTVSS VL: DIVMTQSPATLSLSPGERATLSCRSSKSLLNSNGNTYLYWFQQKPGQSPQLLIYRMSNLNSGVPDRFSGSGSGTEFTLTISSLEPEDFAVYYCMQHLEYPNTFGAGTKLEIK"
property_name = "Fold change binding"
assay_result = "4.02 fold"

[[record]]
binder = "H1.191 / L1.160 (antibody, V domains shown, vs H1L1 (Kabat): VH K58E/S100cT; VL L27cQ/S27eV/G29A/A55N/F96I; also called 4G7 H1.191_L1.160) VH: EVQLVESGGGLVKPGGSLKLSCAASGYTFTSYVMHWVRQAPGKGLEWIGYINPYNDGTEYNEKFQGRVTISSDKSISTAYMELSSLRSEDTAMYYCARGTYYYGTRVFDYWGQGTLVTVSS VL: DIVMTQSPATLSLSPGERATLSCRSSKSLQNVNANTYLYWFQQKPGQSPQLLIYRMSNLNSGVPDRFSGSGSGTEFTLTISSLEPEDFAVYYCMQHLEYPITFGAGTKLEIK"
property_name = "Fold change binding"
assay_result = "2.91 fold"

[[record]]
binder = "H1.202 / L1.161 (antibody, V domains shown, vs H1L1 (Kabat): VH D55E/S100cT; VL L27cQ/S27eV/G29S/A55N/F96I; also called 4G7 H1.202_L1.161) VH: EVQLVESGGGLVKPGGSLKLSCAASGYTFTSYVMHWVRQAPGKGLEWIGYINPYNEGTKYNEKFQGRVTISSDKSISTAYMELSSLRSEDTAMYYCARGTYYYGTRVFDYWGQGTLVTVSS VL: DIVMTQSPATLSLSPGERATLSCRSSKSLQNVNSNTYLYWFQQKPGQSPQLLIYRMSNLNSGVPDRFSGSGSGTEFTLTISSLEPEDFAVYYCMQHLEYPITFGAGTKLEIK"
property_name = "Fold change binding"
assay_result = "4.3 fold"

